The entries below are paired with their reported Total Cell Count.
Tested on: U2OS
procedure_summary: Multiplex assay against U2OS
Type: toxicity, cell-based
condition_info: human, 12 h, 10 µM, compound concentration 10 uM, replicate 2
// print number alone

Some compounds with known Total Cell Count results, for comparison:
>  <compound>
CC(C)NC(=O)N1CC[C@H](NC2=Nc3cc(F)ccc3N(CC(F)F)c3ccc(Cl)cc32)C1

>  <attribute_measured>
Total Cell Count

>  <reported_value>
62

$$$$
>  <compound>
Cc1cccc(CN2CCN(C(c3ccccc3)c3ccc(Cl)cc3)CC2)c1.Cl.Cl (stereo not drawn)

>  <attribute_measured>
Total Cell Count

>  <reported_value>
58

$$$$

Ask: Need Total Cell Count, item COc1cc2ncn(-c3cc(OCc4ccccc4C(F)(F)F)c(C(N)=O)s3)c2cc1OC [GW843682X]
Result: 68

Ask: Need Total Cell Count, item O=C(c1cc2c(cc1F)OC(c1ccc(F)cc1)(c1ccc(Cl)cc1Cl)O2)N1CCOCC1 (stereo not drawn)
Result: 52

Ask: Need Total Cell Count, item Cc1ccc2c(c1)c1c(n2CCc2ccc(C)nc2)CCN(C)C1 [LATREPIRDINE]
Result: 103

Ask: Need Total Cell Count, item `C=CC(=O)Nc1ccc2[nH]c(=O)n(C3CCN(Cc4ccc(-c5nc6cc[nH]c(=O)c6cc5-c5ccccc5)cc4)CC3)c2c1`
Result: 104

Ask: Need Total Cell Count, item `CNC(=O)Nc1ccc2c(c1)[C@@]1(CC2)OC(=O)N(CC(=O)N(Cc2ccc(F)cc2)[C@@H](C)C(F)(F)F)C1=O`
Result: 102

Ask: Need Total Cell Count, item `COc1ccccc1CN[C@H]1C2CCN(CC2)[C@H]1C(c1ccccc1)c1ccccc1`
Result: 77
